- System: MCF7
- Measurement Notes: HRG-induced Akt activation (dPAkt = log2 pAkt/Akt HRG-stimulated minus log2 pAkt/Akt basal) (log2 ratio difference); higher = stronger HRG-induced Akt(T308) phosphorylation
- Applied Conditions: miRNA mimic concentration 10 nM; time after transfection 72 h; heregulin 10 ng/ml; stimulation time 1 h
Returns 1.0 if the recorded HRG-induced Akt activation (log2) is greater than or equal to 1, and 0.0 otherwise.

Task: Could you tell me if the measured HRG-induced Akt activation (log2) of UAAUCCUUGCUACCUGGGUGAGA reaches 1 or more?
Output: 1.0

Task: Reported HRG-induced Akt activation (log2) at or above 1? CGGAUGAGCAAAGAAAGUGGUU
Output: 1.0

Task: Does the sequence ACUCAAACUGUGGGGGCACU have recorded HRG-induced Akt activation (log2) that is 1 or more?
Output: 0.0

Task: Record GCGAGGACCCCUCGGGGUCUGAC ; criterion: HRG-induced Akt activation (log2) no lower than 1. Met?
Output: 1.0

Task: API: above_or_equal(metric=HRG-induced Akt activation (log2), cutoff=1) for item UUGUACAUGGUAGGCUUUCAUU
Output: 1.0

Task: Could you verify whether the entry UUAGGCCGCAGAUCUGGGUGA shows HRG-induced Akt activation (log2) of no less than 1?
Output: 1.0

Task: Test whether the sequence UACCCUGUAGAACCGAAUUUGUG records HRG-induced Akt activation (log2) of 1 or higher.
Output: 1.0

Task: Decide: is the reported value of HRG-induced Akt activation (log2) for UCCAUUACACUACCCUGCCUCU equal to or greater than 1?
Output: 1.0

Task: I'd appreciate it if you could say whether UCUGGGCAACAAAGUGAGACCU has HRG-induced Akt activation (log2) at least equal to 1.
Output: 0.0

Task: HRG-induced Akt activation (log2) >= 1 for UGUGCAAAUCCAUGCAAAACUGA ?
Output: 0.0

Task: Would you say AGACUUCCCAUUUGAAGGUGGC shows HRG-induced Akt activation (log2) at minimum 1?
Output: 1.0

Task: Does UUAGGGCCCUGGCUCCAUCUCC have a reported HRG-induced Akt activation (log2) of at least 1?
Output: 1.0

Task: Reported HRG-induced Akt activation (log2) at or above 1? CCAAAACUGCAGUUACUUUUGC
Output: 1.0

Task: Exam item: decide whether the reported HRG-induced Akt activation (log2) for AUGGUUCCGUCAAGCACCAUGG is at least 1.
Output: 1.0
